# Tested on: SNB-19 CNS
# experimentDescription: NCI tumour cell line growth inhibition, 48 h
parameterMeasured: TGI

Solved entries (count: 6):
COC1=CC(=O)c2c(cc(COP(=O)(OCC3OC(n4cc(F)c(=O)[nH]c4=O)CC3O)N(C)CCCCCl)n2C)C1=O (stereo not given): > 70.5 µM
COc1cc(OC)c2c(=O)c(OC)c(-c3ccc4c(c3)OCO4)oc2c1OC: > 100 µM
COC(=O)c1ccc(NCc2c(O)ccc(O)c2Br)cc1Cl: > 100 µM
COC(=O)NN1C(C)=C(C(=O)OC)C2(C#N)C(C(=O)OC)=C(C)N(NC(=O)OC)C12N (stereo not given): > 100 µM
O=C(/C=C/c1ccccc1Cl)c1cccc2ccccc12: 16.8 µM
O=C(O)C1C2C=CC(C2)C1C(=O)O (stereo not given): > 100 µM

Take each entry in turn and give its TGI.
1. COc1cc2c(cc1OC)CN1CCCc3cc(OC)c(OC)cc3C1C2 (stereo not given)
2. CCOC(=O)C1C(c2ccc(O)c(OC)c2)c2c([nH][nH]c2=O)CC1(C)O (stereo not given)
3. COc1cc(CNC2=NCCC2)cc(OC)c1OC
4. CC(C)(C)OC(=O)NCCC(=O)NC1(c2cc3ccccc3s2)CCCCC1
5. Cn1c2ccccc2c(=O)c2c(O)cc3c(c21)CC(C1(C)CO1)O3 (stereo not given)
6. O=S(=O)(c1ccc(Br)cc1)N1CCN(S(=O)(=O)c2ccc(Br)cc2)CC1
7. NC1=NN(c2ccccc2)C(=O)C1/C(=N\NC(=O)c1cc2ccccc2cc1O)C(=O)Nc1cccc(C(F)(F)F)c1 (stereo not given)

1: > 100 µM; 2: > 100 µM; 3: > 100 µM; 4: 37.1 µM; 5: 26.9 µM; 6: > 100 µM; 7: > 100 µM
